Listed compounds paired with reported IC50
- Test system: HL-60
- experiment: Antiproliferative activity against human HL60 cells after 72 hrs by MTT assay
- Format: functional, cell-based
- conditionSummary: HL-60, 72 h
// note: answer is a bare numeric in µM

These recorded examples may help you get a feel for the data.
molecule	measuredOn	unitAbbrev	IC50
C=C1C(=O)[C@@]23C(=O)O[C@H]4CCC(C)(C)[C@H]5C(=O)OC[C@@]45[C@@H]2CC[C@@H]1[C@H]3O	HL-60	µM	20.6
C=C1C(=O)[C@@]23C(=O)O[C@H]4CCC(C)(C)[C@H]5[C@H](O)OC[C@@]45[C@@H]2CC[C@@H]1[C@H]3OC(=O)c1ccc(N(CCCl)CCCl)cc1	HL-60	µM	7.83

Prompt line: Report the value of IC50 obtained on HL-60 for COC(=O)[C@H](Cc1ccc(N(CCCl)CCCl)cc1)NC(=O)CCC(=O)O .
Response line: 12.4

* * *

Listed compounds paired with reported pIC50
- System: HL-60
- experiment: Antiproliferative activity against human HL60 cells after 72 hrs by MTT assay
- Format: functional, cell-based
- conditionSummary: HL-60, 72 h
Keep in mind that pIC50 stands for -log10 of concentration in molar terms.

These recorded examples may help you get a feel for the data.
compound	measuredResult
C=C1C(=O)[C@@]23C(=O)O[C@H]4CCC(C)(C)[C@H]5C(=O)OC[C@@]45[C@@H]2CC[C@@H]1[C@H]3OC(=O)c1ccc(N(CCCl)CCCl)cc1	5.25
C=C1C(=O)[C@@]23C(=O)O[C@H]4CCC(C)(C)[C@H]5C(=O)OC[C@@]45[C@@H]2CC[C@@H]1[C@H]3OC(=O)CCCc1ccc(N(CCCl)CCCl)cc1	5.00
C=C1C(=O)[C@]23[C@H](O)[C@H]1CC[C@H]2[C@@]12CO[C@]3(O)[C@@H](O)[C@@H]1C(C)(C)CC[C@@H]2O [ORIDONIN]	4.84
C=C1C(=O)[C@@]23C(=O)O[C@H]4CCC(C)(C)[C@H]5[C@H](O)OC[C@@]45[C@@H]2CC[C@@H]1[C@H]3O	4.55

Now for a further compound.
Prompt line: For C=C1C(=O)[C@@]23C(=O)O[C@H]4CCC(C)(C)[C@H]5C(=O)OC[C@@]45[C@@H]2CC[C@@H]1[C@H]3OC(=O)CCC(=O)N[C@@H](Cc1ccc(N(CCCl)CCCl)cc1)C(=O)OC , write its pIC50.
Response line: 4.73

Just for reference, ChEMBL document CHEMBL4229335 is where these values come from.
